target: CaRvs167; test: SPOT peptide array binding signal intensity (averaged, normalized) (arbitrary units (background-subtracted, floor 0; scale differs between SH3 domains)); higher = stronger binding of the SH3 domain to the peptide
Give true (1) when the value for SPOT peptide array binding signal intensity is at least 20. Give false (0) when it is less.

TKIRRRPQQPLTDFT	false (0)
LPMNIQPDLPPRKIM	true (1)
MSPLGAPPPPPHKDH	false (0)
LASNSPPVYPKRIRH	false (0)
DTIDNVKSKIQDKEG	false (0)
RVRKTHVPASKRPSG	false (0)
RKRAPTPPAPSRSEK	true (1)
VQKRKLPLPGSIASA	false (0)
KDKKTKPTPPPKPSH	false (0)
RRLRDKYKLPIVDAD	false (0)
QPQRTAPKPPISAPR	false (0)
KKEKKPPKIPKKVYT	false (0)
VDFTLPPPPPPPGLD	false (0)
RPKRRAPPPVPKKPS	true (1)
KRNRLKILLPFLEQS	true (1)
LKVTPGRRAPTISKI	false (0)
FYNRTAFQLPGDARV	false (0)
YLTRPLPSTPNEDSR	true (1)
EAEEAAPQLPSRSSA	true (1)
